FYI, the data here is from the C3SDB collision cross section collection.

measurement.parameters: [M-H]-; instrument: TW; calibrated with phosphatidylcholines (ESI+) and phosphatidylethanolamines (ESI-), doubly charged cardiolipins calibrated with poly-DL-…
experimental.endpoint: collision cross section (N2) (Å²)
Answers are plain numbers, in Å².

Known collision cross section (N2) results, listed for orientation:
>  <molecule>
CCCCCCCCCCCCCCCC(=O)OCC(COP(=O)(O)O)OC(=O)CCCCCCCC1CC1CCCCCC (centres undefined)

>  <experimental.endpoint>
collision cross section (N2)

>  <unit.string>
Å²

>  <test.result>
252.33

$$$$
>  <molecule>
CCCCCCCCCCCCCCCC(=O)OCC(COP(=O)(O)OCC(O)CO)OC(=O)CCCCCCCC1CC1CCCCCCCC (centres undefined)

>  <experimental.endpoint>
collision cross section (N2)

>  <unit.string>
Å²

>  <test.result>
273.44

$$$$

Batch of 2 molecules: report collision cross section (N2) for each.
1. CCCCCCC1CC1CCCCCCCC(=O)O[C@H](CO)COP(=O)(O)OCC(O)CO (some centres undefined)
2. CCCCCC/C=C\CCCCCCCC(=O)OCC(COP(=O)(O)O)OC(=O)CCCCCCCC1CC1CCCCCCCC (centres undefined)

Reply:
213.68
256.82

---

measurement.parameters: [M-H]-; instrument: DT; single field, calibrated with ESI Low Concentration Tuning Mix (Agilent)
Counter-ions that a name gives are not always drawn.
experimental.endpoint: collision cross section (N2) (Å²)
One number for each entry, in Å².

Need collision cross section (N2) for each of these compounds.
1. N[C@@H](Cc1ccc(O)c([N+](=O)[O-])c1)C(=O)O
2. NC(CCCC(=O)O)C(=O)O (configuration not stated) [AMINOADIPATE]
3. N[C@@H](CCS)C(=O)O
4. NC(CCSCC(N)C(=O)O)C(=O)O (configuration not stated)
5. N[C@@H]1[C@@H](O)[C@H](O)[C@@H](COS(=O)(=O)O)O[C@H]1O [GLUCOSAMINE 6-SULFATE]

Reply:
1. 148.9
2. 129.9
3. 143.6
4. 141.9
5. 149.4

Give me collision cross section (N2) for each of these compounds, listed below.
1. OC[C@@H](O)C(O)[C@@H](O)CO (some centres not stated) [RIBITOL]
2. Nc1ncnc2c1ncn2[C@H]1C[C@H](O)[C@@H](CO)O1
3. O=C(O)CCCC(=O)C(=O)O [OXOADIPATE]
4. Nc1c(O)cccc1C(=O)O [3-HYDROXYANTHRANILATE]

Reply:
[125.8, 155.3, 126.5, 127.8]

Hi team, please reply with collision cross section (N2) for each item in this list.
1. O=C(O)c1ccccc1[O-] [SALICYLATE]
2. Nc1ccn([C@@H]2O[C@H](CO)[C@@H](O)[C@H]2O)c(=O)n1

Reply:
[119.8, 149.8]

For each entry beneath this line, provide reported collision cross section (N2).
1. Nc1ccn([C@@H]2O[C@H](COP(=O)(O)OP(=O)(O)OP(=O)(O)O)[C@@H](O)[C@H]2O)c(=O)n1 [CYTIDINE TRIPHOSPHATE]
2. Nc1nc(=O)c2ncn([C@@H]3O[C@@H]4COP(=O)(O)O[C@H]4[C@H]3O)c2[nH]1
3. Nc1nc(=O)c2ncn([C@@H]3O[C@H](COP(=O)(O)OP(=O)(O)O)[C@@H](O)[C@H]3O)c2[nH]1 [GUANOSINE DIPHOSPHATE]

Reply:
1: 181.2; 2: 167.8; 3: 182.4

For the 3 compounds below, give their collision cross section (N2) values.
1. O=C(O)C1(O)C[C@@H](O)C(O)[C@H](O)C1 (some centres not stated) [QUINATE]
2. Nc1nc(=O)c2ncn([C@@H]3O[C@H](COP(=O)(O)OP(=O)(O)OP(=O)(O)O)[C@@H](O)[C@H]3O)c2[nH]1 [GUANOSINE TRIPHOSPHATE]
3. CC(=O)[C@H]1CC[C@H]2[C@@H]3CC=C4C[C@@H](OS(=O)(=O)O)CC[C@]4(C)[C@H]3CC[C@]12C [PREGNENOLONE SULFATE]

Reply:
1. 134.5
2. 193
3. 206.2

---

measurement.parameters: [M+K]+; instrument: TW; calibrated with polyalanine
experimental.endpoint: collision cross section (N2) (Å²)
Answers are plain numbers, in Å².

Example molecules with recorded collision cross section (N2):
>  <molecule>
COc1cc2c(c3oc(=O)c4c(c13)CCC4=O)[C@@H]1CCO[C@@H]1O2 [Aflatoxin B2]

>  <experimental.endpoint>
collision cross section (N2)

>  <unit.string>
Å²

>  <test.result>
181.4

$$$$
>  <molecule>
CC(C)[C@H]1OC(=O)[C@H](Cc2ccccc2)N(C)C(=O)[C@@H](C(C)C)OC(=O)[C@H](Cc2ccccc2)N(C)C(=O)[C@@H](C(C)C)OC(=O)[C@H](Cc2ccccc2)N(C)C1=O [Beauvericin]

>  <experimental.endpoint>
collision cross section (N2)

>  <unit.string>
Å²

>  <test.result>
290.3

$$$$

// next entry
Ask: Entry CC[C@H](C)[C@H]1C(=O)O[C@H](C(C)C)C(=O)N(C)[C@@H]([C@@H](C)CC)C(=O)O[C@H](C(C)C)C(=O)N(C)[C@@H](C(C)C)C(=O)O[C@H](C(C)C)C(=O)N1C [Enniatin A1] has what collision cross section (N2)?
Reply: 257.9

---

Would you kindly list collision cross section (N2) for each of these compounds?
measurement.parameters: [M+Na]+; instrument: DT; stepped-field
Answers are plain numbers, in Å².

Below, each entry is followed by its recorded collision cross section (N2) result.
>  <compound>
C[C@@](O)(CCO)CC(=O)O

>  <unit.string>
Å²

>  <collision cross section (N2)>
137.7

$$$$
>  <compound>
CC(=O)Oc1ccccc1C(=O)O

>  <unit.string>
Å²

>  <collision cross section (N2)>
146.8

$$$$
>  <compound>
Nc1ccn([C@@H]2O[C@H](CO)[C@@H](OP(=O)(O)O)[C@H]2O)c(=O)n1 [Cytidine 3'-monophosphate]

>  <unit.string>
Å²

>  <collision cross section (N2)>
174.9

$$$$
>  <compound>
N[C@H](CO)Cc1cnc[nH]1

>  <unit.string>
Å²

>  <collision cross section (N2)>
136.57

$$$$
>  <compound>
N[C@@H](Cc1c[nH]c2ccc(O)cc12)C(=O)O [5-Hydroxy-L-Tryptophan]

>  <unit.string>
Å²

>  <collision cross section (N2)>
156.47

$$$$
>  <compound>
O=c1c(-c2ccc(O)cc2)coc2cc(O)cc(O)c12

>  <unit.string>
Å²

>  <collision cross section (N2)>
177.67

$$$$
>  <compound>
Cc1ccccc1C(=O)NCC(=O)O

>  <unit.string>
Å²

>  <collision cross section (N2)>
156.6

$$$$
>  <compound>
CC/C=C\C[C@H](O)[C@H](O)/C=C/C=C/C=C\C=C\[C@@H](O)C/C=C\CCC(=O)O [Resolvin D2]

>  <unit.string>
Å²

>  <collision cross section (N2)>
200.6

$$$$
>  <compound>
O=c1[nH]c(=O)c2[nH]c(=O)[nH]c2[nH]1

>  <unit.string>
Å²

>  <collision cross section (N2)>
143.5

$$$$

Turning now to a further compound:
Ask: State the recorded collision cross section (N2) for this entry: C[N+](C)(C)CC(=O)[O-]
Reply: 135.56

---

measurement.parameters: [M+2Na-H]+; instrument: DT; stepped-field
Task for the reader: assign each of the following molecules its reported collision cross section (N2).
Answers are plain numbers, in Å².

Below, 3 molecules whose answers are already recorded.
>  <molecule>
CCCCC/C=C\C/C=C\CCCCCCCC(=O)OC[C@H](COP(=O)(O)OCCN)OC(=O)CCCCCCCCCCCCCCCCCCCC [PE(39:02)]

>  <collision cross section (N2), Å²>
291.84

$$$$
>  <molecule>
CCCCC/C=C\C/C=C\C/C=C\C/C=C\CCCCCC(=O)O[C@H](COC(=O)CCCC/C=C\C/C=C\C/C=C\CCCCC)COP(=O)(O)OCCN [PE(40:07)]

>  <collision cross section (N2), Å²>
286.07

$$$$
>  <molecule>
CCCCC/C=C\C/C=C\C/C=C\CCCCCCC(=O)O[C@H](COC(=O)CCCCCCC/C=C\CCCCCCCC)COP(=O)(O)OC[C@H](N)C(=O)O [PS(38:04)]

>  <collision cross section (N2), Å²>
288.75

$$$$

Below is a list of molecules. For each, state its recorded collision cross section (N2).
1. CCCCCCCCCC/C=C\CCCCCCCCCC(=O)O[C@H](COC(=O)CCCCCCCCCCC)COP(=O)(O)OC[C@H](N)C(=O)O [PS(34:01)]
2. CCCCCCCCCC/C=C\CCCCCCCCCC(=O)O[C@H](COC(=O)CCCCCCCCCCCCCC)COP(=O)(O)OC[C@H](N)C(=O)O [PS(37:01)]
3. CCCCC/C=C\C/C=C\C/C=C\C/C=C\CCCC(=O)O[C@H](COC(=O)CCCCCCCCCCCCCCC)COP(=O)(O)O [PA(36:04)]

Reply:
[280.81, 293.47, 270.03]
